From: ChEMBL document CHEMBL2163269

Biological target: Betaine--homocysteine S-methyltransferase 1 (Homo sapiens)
Sequence (Q93088 whole entry): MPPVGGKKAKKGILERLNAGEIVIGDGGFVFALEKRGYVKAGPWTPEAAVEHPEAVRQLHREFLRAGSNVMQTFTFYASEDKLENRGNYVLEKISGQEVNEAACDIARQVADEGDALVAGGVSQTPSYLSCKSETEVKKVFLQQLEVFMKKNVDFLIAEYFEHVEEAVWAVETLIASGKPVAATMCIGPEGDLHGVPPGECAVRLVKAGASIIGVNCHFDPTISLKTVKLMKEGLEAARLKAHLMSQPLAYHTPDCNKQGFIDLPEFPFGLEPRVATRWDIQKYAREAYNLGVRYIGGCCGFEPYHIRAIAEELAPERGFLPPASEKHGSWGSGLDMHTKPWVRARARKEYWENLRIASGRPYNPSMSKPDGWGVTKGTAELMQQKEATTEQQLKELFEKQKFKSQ
Assay: Inhibition of recombinant human BHMT expressed in Escherichia coli […]
outcome.measure: IC50

In [3]: df
Out[3]:
                                   compound                             tested_target   result
0  CC(CCSCC[C@H](N)C(=O)O)CCC(N)C(=O)O (mixture of isomers)  Betaine--homocysteine S-methyltransferase 1 (Homo sapiens)  76.6 µM

---

Biological target: S-methylmethionine--homocysteine S-methyltransferase BHMT2 (Homo sapiens, UniProt Q9H2M3)
Sequence (Q9H2M3 whole entry): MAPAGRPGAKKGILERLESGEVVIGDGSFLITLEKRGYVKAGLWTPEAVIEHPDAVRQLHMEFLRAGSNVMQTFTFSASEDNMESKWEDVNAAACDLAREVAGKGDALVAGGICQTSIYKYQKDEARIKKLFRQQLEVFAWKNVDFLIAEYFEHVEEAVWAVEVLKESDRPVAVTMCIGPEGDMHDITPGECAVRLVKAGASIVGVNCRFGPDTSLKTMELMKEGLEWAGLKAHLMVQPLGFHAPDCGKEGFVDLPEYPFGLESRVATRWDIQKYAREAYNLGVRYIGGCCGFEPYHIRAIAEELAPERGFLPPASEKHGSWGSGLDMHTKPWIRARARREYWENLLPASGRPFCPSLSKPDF
Experiment: Competitive inhibition of recombinant human BHMT2 expressed in Escherichia coli […] by Dixon plot method in presence of D,L-homocysteine
Details: read-out: Ki(app)
pKi: −log10 of the molar value.
outcome.measure: pKi

                                   compound  quantitative_readout
0  CC(CCSCC[C@H](N)C(=O)O)CCC(N)C(=O)O (mixture of isomers)                  7.11
